Test system: NCI-H23
Test method notes: NCI tumour cell line growth inhibition, 48 h
Active and inactive are the calls of the source. Rule as the data show it: active = GI50 up to about 1.1 µM and inactive = higher.
Quick reference for GI50 among some compounds

Example compounds with recorded GI50:
[[record]]
compound = "c1csc(-c2ccc(-c3ccc(-c4ccc(-c5cccs5)s4)s3)s2)c1"
recorded_result = "> 100 µM (inactive)"

[[record]]
compound = "CNC1C(=O)C(C)C(O)(C(CC(C)C(O)/C=C/C=C/CNC(=O)C(C)(C)C(O)\\C(C)=C/C=C\\C=C\\Cc2cnc(C)o2)OC)C12C(=O)OC2C.CNC1C(=O)C(C)C(O)(C(CC(C)C(O)/C=C/C=C/CNC(=O)C(C)(C)C(O)\\C(C)=C/C=C\\C=C\\Cc2cnc(C)o2)OC)C12C(=O)OC2COC (stereo not drawn)"
recorded_result = "0.218 µM (active)"


Now take the following compound into account.
Look up GI50 for this compound: COc1ccc(N2C(=O)C(=O)N(c3ccccc3[N+](=O)[O-])C2=S)cc1
21 µM (inactive)
